Recorded Binding affinity (RU) by entry
target: acetylcholine receptor; assay: SPR, receptor immobilized on CM5 chip, peptide 10 uM
Kindly provide the numeric value in RU only, without the unit symbol.

>>> print(df.to_string())
                binder  experimental_endpoint  result_units  observed_result
0  KSVCRR [6mer-2-461]  Binding affinity (RU)            RU              149

Prompt line: Name the recorded Binding affinity (RU) for RGRCRR [6mer-2-449] .
Response line: 154

Prompt line: Again, but for RWVYKR [6mer-2-435]
Response line: 154
